Test: DRUGMATRIX: Atrial Natriuretic Factor (ANF) radioligand binding (ligand: [125I] ANF (rat))
Type: cell membranes, Cavia porcellus, Dunkin-Hartley, Adrenal gland, Membrane
Conditions: Not Active = under 50% inhibition at 10 µM
observedProperty: Ki

Use the examples below as a reference point.
1. Cn1c(=O)c2nc[nH]c2n(C)c1=O.O	Not Active
2. CC(C)NCC(O)c1ccc(NS(C)(=O)=O)cc1 (configuration not stated)	Not Active
3. C[C@@H]1CC[C@@]2(OC1)O[C@H]1[C@@H](O)[C@H]3[C@@H]4CC[C@H]5C[C@@H](O[C@@H]6O[C@H](CO)[C@H](O[C@@H]7O[C@H](CO)C(O)[C@H](O[C@@H]8OC[C@@H](O)[C@H](O)[C@H]8O)[C@H]7O[C@@H]7O[C@H](CO)[C@H](O)[C@H](O[C@@H]8O[C@H](CO)[C@@H](O)[C@H](O)[C@H]8O)[C@H]7O)[C@H](O)[C@H]6O)[C@H](O)C[C@]5(C)[C@H]4CC[C@]3(C)[C@H]1[C@@H]2C (some centres not stated)	Not Active
4. O=C1O[C@H]([C@@H](O)CO)C(O)=C1O	Not Active
5. CC1(C)S[C@@H]2[C@H](NC(=O)[C@H](N)c3ccccc3)C(=O)N2[C@H]1C(=O)O	Not Active
6. CCN1CCC[C@H]1CNC(=O)c1cc(S(N)(=O)=O)ccc1OC [LEVOSULPIRIDE]	Not Active
7. CN/C(=N\CCSCc1nc[nH]c1C)NC#N	Not Active
8. Clc1ccccc1CN1CCc2sccc2C1	Not Active
9. COC(=O)Nc1nc2ccc([S+]([O-])c3ccccc3)cc2[nH]1 (configuration not stated)	Not Active
10. N=C(N)NC(=O)Cc1c(Cl)cccc1Cl	Not Active

For the next question, use this molecule.
Look up Ki for this molecule: CC(C)Cc1ccc([C@@H](C)C(=O)O)cc1 [(R)-IBUPROPHEN]
Not Active

----------
pKi listing for selected compounds.
Target: Sigma non-opioid intracellular receptor 1 (Homo sapiens)
Sequence (Q99720 whole entry): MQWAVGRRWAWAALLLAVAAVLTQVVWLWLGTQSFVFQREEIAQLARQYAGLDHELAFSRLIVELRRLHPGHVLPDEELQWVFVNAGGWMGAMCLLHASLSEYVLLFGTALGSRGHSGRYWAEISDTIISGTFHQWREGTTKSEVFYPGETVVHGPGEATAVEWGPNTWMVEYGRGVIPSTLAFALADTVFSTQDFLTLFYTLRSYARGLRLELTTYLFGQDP
Assay: DRUGMATRIX: Sigma1 radioligand binding (ligand: [3H] Haloperidol)
Type: cell membranes, Jurkat, Membrane
Details: Not Active = under 50% inhibition at 10 µM; read-out: Ki
Keep in mind that pKi stands for -log10 of concentration in molar terms.

# count of solved cases: 6
1) Clc1ccccc1CN1CCc2sccc2C1	6.75
2) CN(C/C=C/C#CC(C)(C)C)Cc1cccc2ccccc12	6.63
3) CN(C)CC[C@@H](c1ccc(Cl)cc1)c1ccccn1	6.16
4) Clc1ccc(COC(Cn2ccnc2)c2ccc(Cl)cc2Cl)cc1 (configuration not stated)	5.05
5) OC(CCCN1CCCCC1)(c1ccccc1)c1ccccc1	6.97
6) CCCOc1ccc(C(=O)OCCN(CC)CC)cc1N	7.00

What does the record list as pKi for CC(=O)[C@H]1[C@H](C#N)C[C@H]2[C@@H]3CC=C4C[C@@H](O)CC[C@]4(C)[C@H]3CC[C@@]21C ?
5.05

Then CCCNCC(O)COc1ccccc1C(=O)CCc1ccccc1 (configuration not stated) ?
5.96

Can you check COc1ccc2cc3[n+](cc2c1OC)CCc1cc2c(cc1-3)OCO2.[Cl-] [BERBERINE CHLORIDE] next?
6.27
